Across several publications, the following Ki results were reported for Cannabinoid receptor 2 (Homo sapiens, UniProt P34972).
READOUT_NAME: Ki (µM)

RECORD_SMILES	UNIT_ABBREVIATION	MODIFIER_SIGN	OBSERVED_MEASUREMENT
CCCCCCC/C=C/C=C/C(=O)NCC(C)C	µM	=	0.052
CCc1c(C(=O)N[C@H]2CCCC[C@@H]2O)nc(-c2ccccc2Cl)n1-c1ccc(Cl)cc1	µM	=	2.3
O=S(=O)(NCC[C@@H]1CC[C@@H](c2ccc(Cl)cc2Cl)N(c2ccc(Cl)cc2)C1)C1CC1	µM	>	2.22
CCCCNC(=O)N1CCC(Nc2ncnc3c2nc(-c2ccccc2Cl)n3-c2ccc(Cl)cc2)CC1	µM	>	20
Cc1c(C(=O)NN2CCCCC2)nc(-c2ccc(Cl)cc2Cl)n1-c1ccc(F)cc1	µM	=	0.765

---

pKi: −log10 of the molar value.
Across several publications, the following pKi results were reported for Cannabinoid receptor 2 (Homo sapiens).
Outcome label depends on pKi relative to 6: at/above gives label 1, below gives label 0.

COMPOUND	CATEGORY
Fc1ccc(C[C@H]2CC[C@H](c3ccc(Cl)cc3Cl)N(c3ccc(Cl)cc3)C2)cc1F (relative stereo)	label 0
CCCCCOc1cc(/C=C/C(=O)NCCc2ccncc2)ccc1OC	label 1
CCN1CCc2c(nn(-c3ccccc3Cl)c2-c2ccc(Cl)cc2)C1=O	label 0
CC(C)(C)N1CCc2c(nn(-c3ccccc3Cl)c2-c2ccc(Cl)cc2)C1=O	label 0
O=C(N[C@@H]1CCCC[C@H]1O)c1cnc(OCc2ccncc2)c(-c2ccc(Cl)cc2)c1	label 0
O=c1c2nn(-c3ccccc3Cl)c(-c3ccc(Cl)cc3)c2ncn1C1CCCCC1	label 0
Cc1c(C(=O)N[C@@H](C)CO)nn(-c2ccc(Cl)cc2Cl)c1-c1ccc(Cl)cc1	label 0
Cc1cc(C)c(S(=O)(=O)NC(=N)N2CC(c3ccccc3)C(c3ccc(Cl)cc3)=N2)c(C)c1 (centres undefined)	label 0
O=S(=O)(C1CC1)N1CCN(C[C@@H]2CC[C@@H](c3ccc(Cl)cc3Cl)N(c3ccc(Cl)cc3)C2)CC1	label 0
CN/C(=N/S(=O)(=O)c1ccc(C(F)(F)F)cc1)N1C[C@H](c2ccccc2)C(c2ccc(Cl)cc2)=N1	label 0
Cc1ccc(-c2cc(CC3CCCCC3)[nH]n2)cc1S(=O)(=O)N1CCOCC1	label 1
COc1ccc(S(=O)(=O)c2cc(OC)ccc2S(=O)(=O)c2ccc([C@@H](C)NS(C)(=O)=O)cc2)cc1	label 1
Cc1c(C(=O)NCCCNCCCN)nn(-c2ccc(Cl)cc2Cl)c1-c1ccc(Cl)cc1	label 0
Cc1c(C(=O)NN2CCCCC2)nn(-c2ccccc2)c1-c1ccccc1	label 0
CC(C)CNC(=O)[C@@H]1CC[C@@H](c2ccc(Cl)cc2Cl)N(c2ccc(Cl)cc2)C1	label 0
CN(Cc1ccccc1)C(=O)N1CC(O[C@H](c2ccc(Cl)cc2)c2cccnc2Cl)C1	label 1
CC(F)(F)Cn1cnc2c(-c3ccc(Cl)cc3)n(-c3ccccc3Cl)nc2c1=O	label 0

---

pKi: −log10 of the molar value.
Across several publications, the following pKi results were reported for Cannabinoid receptor 2 (Homo sapiens, UniProt P34972).
READOUT_NAME: pKi

COMPOUND	READOUT_NAME	MODIFIER_SIGN	OBSERVED_MEASUREMENT
O=C(NN1CCCCC1)c1nc(-c2ccc(Cl)cc2Cl)n(-c2ccc(Cl)cc2)c1Cl	pKi	=	6.08
CCOC(=O)C(CC)(CC)NC(=O)c1ccc(N2CC(OC)C2)c(OC[C@H]2C[C@@H]2COCF)n1 (mixture of isomers)	pKi	=	8.74
O=C(Cc1ccc(Cl)cc1)NC(NC(=O)Cc1ccc(Cl)cc1)c1ccccc1	pKi	<	4.70
O=C(NCc1ccccc1)c1ccc(Br)c(S(=O)(=O)N2CCOCC2)c1	pKi	=	6.10
O=c1c2nc(-c3ccccc3Cl)n(-c3ccc(Cl)cc3)c2ncn1CC(F)(F)F	pKi	<	5.00
O=C(Cc1ccc(C(F)(F)F)cc1)NC(NC(=O)Cc1ccc(C(F)(F)F)cc1)c1ccccc1F	pKi	<	4.70
CN1CCN(NC(=O)c2cnn(-c3ccc(Cl)cc3Cl)c2-c2ccc(Br)cc2)CC1	pKi	=	4.52
O=C(CCC/C=C\C[C@H]1C(=O)C[C@@H](O)[C@@H]1/C=C/[C@@H](O)CCc1ccccc1)NCCCO	pKi	<	6.00
O=C1c2nn(-c3ccccc3Cl)c(-c3ccc(Cl)cc3)c2OCCN1CC(F)(F)F	pKi	<	5.00
Cc1c(C(=O)NC2CCCC2)oc2ccc(S(=O)(=O)N3CC(C)CC(C)C3)cc12 (centres undefined)	pKi	=	5.13
CCOC(=O)N1CCC[C@@H](NC(=O)c2nn(-c3ccc(Cl)cc3Cl)c(-c3ccc(Cl)cc3)c2C)C1	pKi	=	5.60
COc1ccc2c(c1)OC(C)(C)c1cn(CNC(=O)CN3CCN(c4ccccc4)CC3)nc1-2	pKi	=	5.80
O=C(Nc1ccccc1Oc1ccccc1)c1ccc(S(=O)(=O)N2CCc3ccccc32)cc1	pKi	=	5.00
CCCCCc1cc(-c2ccc(Cl)cc2)n(-c2ccc(Cl)cc2Cl)n1	pKi	=	6.34
COc1ccccc1NC(=O)C(C)Sc1nc(-c2ccc(C)cc2)nc2c1COC(C)(C)C2 (centres undefined)	pKi	=	5.00
O=C1[C@@H](Cc2ccc(F)c(F)c2)CC[C@H](c2ccc(Cl)cc2Cl)N1c1ccc(Cl)cc1 (relative stereo)	pKi	<	5.78
CN=C(NS(=O)(=O)N1CCC(F)(F)CC1)N1CC(c2ccccc2)C(c2ccc(Cl)cc2)=N1 (centres undefined)	pKi	=	6.66
Cc1ccc(NC(=O)c2ccccc2Cl)cc1S(=O)(=O)N1CCOCC1	pKi	=	6.77
CCCN(CCC)c1ccc(C(NC(=O)Cc2ccccc2)NC(=O)Cc2ccccc2)cc1	pKi	=	7.66
